system: Candida albicans; conditions: 20 µM
Description: Antifungal activity against Candida albicans ATCC 90028 (CO-ADD:FG_001); MIC in YNB media using NBS plates, by OD630
Measured potencies and affinities stand elsewhere.
RECORDED_ENDPOINT: Inhibition (%)
Answer format: numeric, % implied, no suffix.

A selection of reference data follows.
* c1ccc2c(c1)Nc1ccncc1S2 | 2.27
* CCOC(=O)c1cc(-c2cccnc2)nc2c(Cl)cc(Cl)cc12 | 4.8
* CCOC(=O)c1c(O)cc(C)nc1O | 3.14

Q. Missing value: Inhibition, Candida albicans, entry Nc1ccc(Nc2ccccc2)c(S(=O)(=O)O)c1 . Fill in?
A. 18.9

Q. Missing value: Inhibition, Candida albicans, entry COc1ccc2c(c1)CCN1C2CCN2C(=O)CCC21 (configuration not stated) . Fill in?
A. 3.14

Q. Missing value: Inhibition, Candida albicans, entry Cc1nc(Br)c(Br)c(C)c1Br . Fill in?
A. 4.5

Q. Missing value: Inhibition, Candida albicans, entry CCN(CC)c1ccc(/C=C/c2cc(-c3ccccc3)c3ccccc3n2)cc1 . Fill in?
A. 4.35

Q. Missing value: Inhibition, Candida albicans, entry CC12CCC(C1)C(C)(C)C2OC(=O)c1ccccc1C(=O)O (configuration not stated) . Fill in?
A. 4.22

Q. Missing value: Inhibition, Candida albicans, entry CCOC(=O)Nc1cc2c(c(N)n1)N=C(c1ccccc1)CN2 . Fill in?
A. 5.55

Q. Missing value: Inhibition, Candida albicans, entry Oc1ccc(/C=C\c2cnccn2)cc1 . Fill in?
A. 1.24

Q. Missing value: Inhibition, Candida albicans, entry O=c1n(CC2CO2)c(=O)n(CC2CO2)c(=O)n1CC1CO1 (configuration not stated) [TEROXIRONE] . Fill in?
A. 3.23

Q. Missing value: Inhibition, Candida albicans, entry CC(=O)OCc1cc(-c2nc3ccccc3nc2O)nn1-c1ccc(Cl)cc1 . Fill in?
A. 4.91

Cited source: ChEMBL document CHEMBL4296182
